experiment: Urinary excretion in rats after oral administration; assay type: in vivo; details: rat, 100 mg/kg, urine 0-24 hours, bioassay, read-out: Urinary recovery in 24 hours
property-label: dose excreted at 24 h (%)
Note: unit % is implicit; provide only the numeric part.

Prompt: Look up dose excreted at 24 h: C#CC1=C(C(=O)O)N2C(=O)C(NC(=O)/C(=N\OCC(=O)O)c3csc(N)n3)C2SC1 (stereo not shown) [A]
Response: 20

----------
assay: in vivo; settings: rat, po, 100 mg/kg
property-label: dose excreted at 24 h (%)
Note: unit % is implicit; provide only the numeric part.

Prompt: Look up dose excreted at 24 h: C#CC1=C(C(=O)O)N2C(=O)C(NC(=O)/C(=N\OCC(=O)O)c3csc(N)n3)C2SC1 (stereo not shown) [A]
Response: 7.46
